Known RP-LC retention time of a selection of compounds
# ASSAY_COMMENT: gradient 5% acetonitrile 3 min, to 50% in 2 min, to 85% in 15 min, held 3 min, 100 µL/min
# MEASUREMENT_CONDITIONS: column: Zorbax Extend-C18 2.1 x 50 mm; eluents: water / acetonitrile, 0.1% formic acid
The answer is to be given in s; state only the numeric part.

Known RP-LC retention time results, listed for orientation:
>  <COMPOUND>
COCCCNC(=O)c1ccc(Oc2nccnc2N2CCC(C)CC2)cc1

>  <RP-LC retention time (s)>
956

$$$$
>  <COMPOUND>
Cc1ccc(C)c(N2CCN(C(=O)Cn3ccc4ccc(N5CCOCC5)nc43)CC2)c1

>  <RP-LC retention time (s)>
1110

$$$$
>  <COMPOUND>
O=C(Nc1nc2c(s1)CN(Cc1ccccc1)CC2)C1CCCN1S(=O)(=O)c1cccs1 (stereo not given)

>  <RP-LC retention time (s)>
654

$$$$
>  <COMPOUND>
Cc1ccc(C)c(-c2csc(NC(=O)c3cccs3)n2)c1

>  <RP-LC retention time (s)>
1040

$$$$
>  <COMPOUND>
CCCOc1ccc(CN2C[C@@H](CO)[C@H](c3ccncc3)C2)cc1

>  <RP-LC retention time (s)>
575

$$$$
>  <COMPOUND>
O=C(NCCn1nc(-c2cccs2)ccc1=O)c1cc(-c2cccs2)[nH]n1

>  <RP-LC retention time (s)>
573

$$$$
>  <COMPOUND>
COc1ccc(-c2nnc(-c3ccc(C)c(S(=O)(=O)NC4CCCC4)c3)o2)cc1OC

>  <RP-LC retention time (s)>
1010

$$$$
>  <COMPOUND>
COc1cccc(-c2nnc(Cc3nc(-c4ccccc4Cl)no3)o2)c1

>  <RP-LC retention time (s)>
1020

$$$$
>  <COMPOUND>
Cn1nnnc1C1CCCN(C(=O)C2CCC2)C1 (stereo not given)

>  <RP-LC retention time (s)>
636

$$$$
>  <COMPOUND>
Cc1cc(C(=O)Nc2nc(-c3cc4ccccc4o3)cs2)on1

>  <RP-LC retention time (s)>
948

$$$$

For the compound "COCc1nc2c(NC(=O)C(C)C)cccn2n1" , what RP-LC retention time is on record?
653

Note, next up: "O=C(Cc1ccc(F)cc1)Nc1ccccc1NC(=O)c1cccc(Cl)c1"
897

Note, next up: "O=C(c1ccc(Br)cc1)N1CCN(C(=O)c2cc(-c3cccnc3)n[nH]2)CC1"
626

Note, next up: Cc1ccc(C(=O)NCC2CC(=O)N(c3ccc(Cl)cc3)C2)cc1[N+](=O)[O-] (stereo not given)
822

Note, next up: "COC(=O)C1=CN(c2cccc(SC)c2)c2cc(F)ccc2S1(=O)=O"
925
